// values below are reported log10 MIC
System: Streptococcus pyogenes
measurement description: In vitro antibacterial activity against gram-positive organism Streptococcus pyogenes EES61
Format: functional
condition: Streptococcus pyogenes; read-out: MIC
Remember, log10 of MIC, in µg/mL.

Reference set (6 entries):
response.value for `Cc1c(N2CC[C@H](N)C2)c(F)cn2c(=O)c(C(=O)O)cc(C3CC3)c12` (field: log10 MIC) = -1.70

response.value for `Cc1c(N2C[C@@H](C)N[C@@H](C)C2)c(F)cn2c(=O)c(C(=O)O)cc(C3CC3)c12` (field: log10 MIC) = -0.41

response.value for COc1ccc(-c2cc(C(=O)O)c(=O)n3cc(F)c(N4CCC(N)C4)nc23)cc1 (centres undefined) (field: log10 MIC) = 1.40

response.value for `Cc1c(N2C[C@H]3CCC[C@H](N)[C@H]3C2)c(F)cn2c(=O)c(C(=O)O)cc(C3CC3)c12` (field: log10 MIC) = -1.70

response.value for `C[C@H]1C[C@H](N)CN1c1nc2c(-c3ccc(F)cc3F)cc(C(=O)O)c(=O)n2cc1F` (field: log10 MIC) = -0.11

response.value for `Cc1c(N2C[C@@H](N)C[C@H]2C)c(F)cn2c(=O)c(C(=O)O)cc(C3CC3)c12` (field: log10 MIC) = -0.70

Now examine the next entry.
response.value for `CO[C@@H]1CN(c2c(F)cn3c(=O)c(C(=O)O)cc(C4CC4)c3c2C)C[C@H]1N` (field: log10 MIC) = -0.41
